- Test system: HeLa Kyoto
- Assay info: melting temperature (median over replicates), in situ; higher = more thermally stable
- Run conditions: cell cycle stage: mitosis
Recorded melting temperature for the following substances
Provide only the numeric value, understood in °C.

Would you please look over these solved cases?
Using the record for `CIAPIN1` , report its melting temperature.
51.7

Using the record for MKQLPVLEPGDKPRKATWYTLTVPGDSPCARVGHSCSYLPPVGNAKRGKVFIVGGANPNRSFSDVHTMDLGKHQWDLDTCKGLLPRYEHASFIPSCTPDRIWVFGGANQSGNRNCLQVLNPETRTWTTPEVTSPPPSPRTFHTSSAAIGNQLYVFGGGERGAQPVQDTKLHVFDANTLTWSQPETLGNPPSPRHGHVMVAAGTKLFIHGGLAGDRFYDDLHCIDISDMKWQKLNPTGAAPAGCAAHSAVAMGKHVYIFGGMTPAGALDTMYQYHTEEQHWTLLKFDTLLPPGRLDHSMCIIPWPVTCASEKEDSNSLTLNHEAEKEDSADKVMSHSGDSHEESQTATLLCLVFGGMNTEGEIYDDCIVTVVD [RABEPK] , report its melting temperature.
56

Using the record for MLTTLLPILLLSGWAFCSQDASDGLQRLHMLQISYFRDPYHVWYQGNASLGGHLTHVLEGPDTNTTIIQLQPLQEPESWARTQSGLQSYLLQFHGLVRLVHQERTLAFPLTIRCFLGCELPPEGSRAHVFFEVAVNGSSFVSFRPERALWQADTQVTSGVVTFTLQQLNAYNRTRYELREFLEDTCVQYVQKHISAENTKGSQTSRSYTSLVLGVLVGSFIIAGVAVGIFLCTGGRRC [PROCR] , report its melting temperature.
57.1

Using the record for MAENREPRGAVEAELDPVEYTLRKRLPSRLPRRPNDIYVNMKTDFKAQLARCQKLLDGGARGQNACSEIYIHGLGLAINRAINIALQLQAGSFGSLQVAANTSTVELVDELEPETDTREPLTRIRNNSAIHIRVFRVTPK [POP7] , report its melting temperature.
54.9

Using the record for MAAAALRRFWSRRRAEAGDAVVAKPGVWARLGSWARALLRDYAEACRDASAEARARPGRAAVYVGLLGGAAACFTLAPSEGAFEEALLEASGTLLLLAPATRNRESEAFVQRLLWLRGRGRLRYVNLGLCSLVYEAPFDAQASLYQARCRYLQPRWTDFPGRVLDVGFVGRWWVLGAWMRDCDINDDEFLHLPAHLRVVGPQQLHSETNERLFDEKYKPVVLTDDQVDQALWEEQVLQKEKKDRLALSQAHSLVQAEAPR [C19ORF52] , report its melting temperature.
53.8

The record that follows has no melting temperature shown yet.
Using the record for MSSLSGKVQTVLGLVEPSKLGRTLTHEHLAMTFDCCYCPPPPCQEAISKEPIVMKNLYWIQKNAYSHKENLQLNQETEAIKEELLYFKANGGGALVENTTTGISRDTQTLKRLAEETGVHIISGAGFYVDATHSSETRAMSVEQLTDVLMNEILHGADGTSIKCGIIGEIGCSWPLTESERKVLQATAHAQAQLGCPVIIHPGRSSRAPFQIIRILQEAGADISKTVMSHLDRTILDKKELLEFAQLGCYLEYDLFGTELLHYQLGPDIDMPDDNKRIRRVRLLVEEGCEDRILVAHDIHTKTRLMKYGGHGYSHILTNVVPKMLLRGITENVLDKILIENPKQWLTFK [PTER] , report its melting temperature.
57

###

Recorded thermal stability score for the following sequences
- Tested on: HeLa Kyoto
- Assay info: thermal stability score vs G1/S (z-score of summed log2 fold changes over temperatures); higher = more thermally stable than in G1/S
- Run conditions: cell cycle stage: mitosis
Could you keep your reply to the number by itself?

Would you please look over these solved cases?
Using the record for MADLLGSILSSMEKPPSLGDQETRRKAREQAARLKKLQEQEKQQKVEFRKRMEKEVSDFIQDSGQIKKKFQPMNKIERSILHDVVEVAGLTSFSFGEDDDCRYVMIFKKEFAPSDEELDSYRRGEEWDPQKAEEKRKLKELAQRQEEEAAQQGPVVVSPASDYKDKYSHLIGKGAAKDAAHMLQANKTYGCVPVANKRDTRSIEEAMNEIRAKKRLRQSGEELPPTS [SPAG7] , report its thermal stability score.
-1.5

Using the record for MASAVFEGTSLVNMFVRGCWVNGIRRLIVSRRGDEEEFFEIRTEWSDRSVLYLHRSLADLGRLWQRLRDAFPEDRSELAQGPLRQGLVAIKEAHDIETRLNEVEKLLKTIISMPCKYSRSEVVLTFFERSPLDQVLKNDNVHKIQPSFQSPVKISEIMRSNGFCLANTETIVIDHSIPNGRDQQLGVDPTEHLFENGSEFPSELEDGDDPAAYVTNLSYYHLVPFETDIWD [PXDC1] , report its thermal stability score.
0.549

The record that follows has no thermal stability score shown yet.
Using the record for MGAAHSASEEVRELEGKTGFSSDQIEQLHRRFKQLSGDQPTIRKENFNNVPDLELNPIRSKIVRAFFDNRNLRKGPSGLADEINFEDFLTIMSYFRPIDTTMDEEQVELSRKEKLRFLFHMYDSDSDGRITLEEYRNVVEELLSGNPHIEKESARSIADGAMMEAASVCMGQMEPDQVYEGITFEDFLKIWQGIDIETKMHVRFLNMETMALCH [TESC] , report its thermal stability score.
1.31

###

- Test system: HeLa Kyoto
- Assay info: thermal stability score vs G1/S (z-score of summed log2 fold changes over temperatures); higher = more thermally stable than in G1/S
- Run conditions: cell cycle stage: early G1 (4.5 h after nocodazole release)
Parameter measured: thermal stability score
Could you keep your reply to the number by itself?

Would you please look over these solved cases?
Using the record for MAGVGAGPLRAMGRQALLLLALCATGAQGLYFHIGETEKRCFIEEIPDETMVIGNYRTQMWDKQKEVFLPSTPGLGMHVEVKDPDGKVVLSRQYGSEGRFTFTSHTPGDHQICLHSNSTRMALFAGGKLRVHLDIQVGEHANNYPEIAAKDKLTELQLRARQLLDQVEQIQKEQDYQRYREERFRLTSESTNQRVLWWSIAQTVILILTGIWQMRHLKSFFEAKKLV [TMED4] , report its thermal stability score.
2.03

Using the record for MICLVLTIFANLFPAACTGAHERTFLAVKPDGVQRRLVGEIVRRFERKGFKLVALKLVQASEELLREHYAELRERPFYGRLVKYMASGPVVAMVWQGLDVVRTSRALIGATNPADAPPGTIRGDFCIEVGKNLIHGSDSVESARREIALWFRADELLCWEDSAGHWLYE [NME3] , report its thermal stability score.
-1.81

More entries:
Using the record for MAGMVDFQDEEQVKSFLENMEVECNYHCYHEKDPDGCYRLVDYLEGIRKNFDEAAKVLKFNCEENQHSDSCYKLGAYYVTGKGGLTQDLKAAARCFLMACEKPGKKSIAACHNVGLLAHDGQVNEDGQPDLGKARDYYTRACDGGYTSSCFNLSAMFLQGAPGFPKDMDLACKYSMKACDLGHIWACANASRMYKLGDGVDKDEAKAEVLKNRAQQLHKEQQKGVQPLTFG [COA7] , report its thermal stability score.
-1.59

Using the record for MAARTVIIDHGSGFLKAGTAGWNEPQMVFPNIVNYLPCKENPGPSYARRRVSLGIDICHPDTFSYPIERGRILNWEGVQYLWSFVLENHRREQEVPPVIITETPLREPADRKKMLEILFELLHVPSVLLADQLQMSLYASGLLTGVVVDSGYGLTRVQPFHQGRPLPASGKTLEFAGQDLSAYLLKSLFKEDCDRRCLFQLETVAVTQMNKCYVPQNLGEALDFRERQQSALDESNTYQLPDGSRVELTPMQRVAPEMFFSPQVFEQPGPSIPRAIVESVESCEISLRPLLVSHVMACGGNTLYPGFTKRLFRELMGDHVSSTKATVWEGSNRNFSVWLGASVVAHLSTYQSEWMSREEYGEHMRM [ACTL8] , report its thermal stability score.
-0.233

Using the record for MSSGNAKIGHPAPNFKATAVMPDGQFKDISLSDYKGKYVVFFFYPLDFTFVCPTEIIAFSDRAEEFKKLNCQVIGASVDSHFCHLAWVNTPKKQGGLGPMNIPLVSDPKRTIAQDYGVLKADEGISFRGLFIIDDKGILRQITVNDLPVGRSVDETLRLVQAFQFTDKHGEVCPAGWKPGSDTIKPDVQKSKEYFSKQK [PRDX1] , report its thermal stability score.
-0.285

Using the record for MAASALYACTKCTQRYPFEELSQGQQLCKECRIAHPIVKCTYCRSEFQQESKTNTICKKCAQNVKQFGTPKPCQYCNIIAAFIGTKCQRCTNSEKKYGPPQTCEQCKQQCAFDRKEEGRRKVDGKLLCWLCTLSYKRVLQKTKEQRKSLGSSHSNSSSSSLTEKDQHHPKHHHHHHHHHHRHSSSHHKISNLSPEEEQGLWKQSHKSSATIQNETPKKKPKLESKPSNGDSSSINQSADSGGTDNFVLISQLKEEVMSLKRLLQQRDQTILEKDKKLTELKADFQYQESNLRTKMNSMEKAHKETVEQLQAKNRELLKQVAALSKGKKFDKSGSILTSP [FAM76B] , report its thermal stability score.
-0.509

Using the record for MSADAAAGAPLPRLCCLEKGPNGYGFHLHGEKGKLGQYIRLVEPGSPAEKAGLLAGDRLVEVNGENVEKETHQQVVSRIRAALNAVRLLVVDPETDEQLQKLGVQVREELLRAQEAPGQAEPPAAAEVQGAGNENEPREADKSHPEQRELRPRLCTMKKGPSGYGFNLHSDKSKPGQFIRSVDPDSPAEASGLRAQDRIVEVNGVCMEGKQHGDVVSAIRAGGDETKLLVVDRETDEFFKKCRVIPSQEHLNGPLPVPFTNGEIQKENSREALAEAALESPRPALVRSASSDTSEELNSQDSPPKQDSTAPSSTSSSDPILDFNISLAMAKERAHQKRSSKRAPQMDWSKKNELFSNL [SLC9A3R1] , report its thermal stability score.
-1.17

Where do the numbers come from? From the supplement of paper PMC5998384.
